Hi there, I'd appreciate the recorded Lipophilic Efficiency (logD) for every entry that follows.
target: GPR139 (Homo sapiens); test: GPR139 Agonist titration / agonist counterscreen assay (calcium detection, HEK-GPR139 cells); format: cell-based; set-up: expressed in transfected cells; host or cells: HEK Aequorin cells, Maxcyte transient transfection; conditions: GPR139 Agonist Activity
Sequence (Q6DWJ6 whole entry): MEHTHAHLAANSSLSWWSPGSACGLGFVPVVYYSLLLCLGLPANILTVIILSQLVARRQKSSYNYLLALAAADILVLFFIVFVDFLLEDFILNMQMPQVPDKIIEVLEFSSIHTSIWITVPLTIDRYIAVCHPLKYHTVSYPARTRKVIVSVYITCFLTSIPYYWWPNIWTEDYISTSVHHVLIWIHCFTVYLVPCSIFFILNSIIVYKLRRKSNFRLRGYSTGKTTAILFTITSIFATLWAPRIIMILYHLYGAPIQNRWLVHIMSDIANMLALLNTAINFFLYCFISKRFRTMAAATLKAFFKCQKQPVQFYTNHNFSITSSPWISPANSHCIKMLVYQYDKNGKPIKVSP
API note: the answer field is a bare number with no unit suffix.

Please fill in: Lipophilic Efficiency (logD) reported for `O=C1CCCCN1c1cccc(NS(=O)(=O)c2cc(Cl)ccc2Cl)c1` = 3.43

Briefly, Lipophilic Efficiency (logD) measured for COc1cccc(COC(=O)NC(C)C2COc3ccccc3O2)c1 (stereo not shown) : 2.98

Form field Lipophilic Efficiency (logD), entry C=C(CC1C(=O)CC(c2ccccc2)(c2ccccc2)C1=O)C(C)CC1=CC=CC1 (stereo not shown) : 2.66

# Lipophilic Efficiency (logD) of `CNc1ccc(CCNC(=O)Cn2c3ccccc3c3nc(=O)cc(C)n32)cc1` = 3.57

Source of measurements: patent US20250099420A1
